The following compounds are shown together with reported melting point values.
value-type: melting point

>>> recorded_result("CCc1cccc(C)c1CNc1cc(C(=O)N(C)C)cc2c1nc(CO)n2C")
"138 to 141 °C"
>>> recorded_result("CSc1cn(C)c2cc(Cl)sc2c1=O")
"231 to 234 °C"
>>> recorded_result("CCCn1cc2c(C3C(=O)Nc4ccc(Br)cc43)nc(NCCN(C)C)nc2n1 (stereo not given)")
"270 to 274 °C"
>>> recorded_result("Cc1cccc(NC(=O)NC2CN(C(=O)NC3CCCCC3)c3ccccc3N(CC(=O)c3ccccc3C)C2=O)c1 (stereo not given)")
"117 to 119 °C"
>>> recorded_result("C=CCn1c(C)nc2c1CC(C(=O)OCC)C1=C2NC2(CC1=O)Cc1ccccc1C2 (stereo not given)")
"164 to 165 °C"
>>> recorded_result("NS(=O)(=O)NC[C@H]1COc2ccc(Cl)cc2O1")
"118 to 119 °C"
>>> recorded_result("CSc1ccc(-c2c(Br)cnn2-c2ccc(F)cc2)cc1")
"85 to 87 °C"
>>> recorded_result("Fc1ccc(-c2ccc(C3OCCO3)cc2)cc1F")
"89 to 91 °C"
>>> recorded_result("O=C(NCCc1c[nH]c2ccc(C(=O)O)cc12)OCc1ccccc1")
"186 to 188 °C"
>>> recorded_result("CNC(=O)Nc1cc(OC)ccc1Br")
"164 to 166 °C"

====

The following compounds are shown together with reported melting point values.
value-type: melting point

>>> recorded_result("Cn1cc(CO)c(=O)c2cccc(Cl)c21")
"182 to 184 °C"
>>> recorded_result("COc1ccc(C(=O)c2ccc(Sc3ccc(Cl)cc3)cc2)cc1OC")
"118 to 120 °C"
>>> recorded_result("O=C(O)C=Cc1cc(OCc2ccccc2)cc(OCc2ccccc2)c1")
"154 to 156 °C"
>>> recorded_result("O=C(COc1cc(N2C(=O)C3=C(CCCC3)C2=O)c(F)cc1Cl)OCc1nc[nH]n1")
"151 to 154 °C"
>>> recorded_result("N#CC1OC(=O)c2cccc(F)c21 (centres undefined)")
"93 to 96 °C"
>>> recorded_result("O=C1C=CC(=Nc2ccccc2C(=O)N2CCCCC2)C=C1")
"74 to 76 °C"
>>> recorded_result("COc1cc(Oc2ccc(S(C)(=O)=O)nc2)cc2cc(C3=NCC(CC(=O)NC4CC4)S3)[nH]c12 (centres undefined)")
"248 to 249 °C"
>>> recorded_result("CC(C)C[C@H](NC(=O)OCc1ccccc1)C(=O)N[C@H]1CCOC1=O")
"130 to 131 °C"
>>> recorded_result("C=CCNc1c(F)cc2c(=O)c(C(=O)O)cn(-c3nc(N)c(F)cc3F)c2c1Cl")
"205 to 208 °C"
>>> recorded_result("O=C1SCCN1Cc1ccccc1")
"50 to 51 °C"
>>> recorded_result("Cc1cccnc1NC(=O)Nc1cccc2c1C1CC(O)CCN1C2=O (centres undefined)")
"204 to 206 °C"
>>> recorded_result("CNS(=O)(=O)c1sccc1C(C)=O")
"101 to 103 °C"
>>> recorded_result("O=C(O)COCC(=O)N1CCC(C(c2ccccc2)c2ccccc2)CC1")
"140 to 141 °C"
>>> recorded_result("CCOC(=O)Cc1c(C(=O)OCC)c(C)cn1CCOS(C)(=O)=O")
"66 to 68 °C"
>>> recorded_result("CCOC1(C(N)=O)c2ccccc2S(=O)(=O)N1Cc1ccc(Br)cc1F (centres undefined)")
"175 to 177 °C"
>>> recorded_result("CCCCCCCCOc1ccc(-c2cnc(C(=O)O)c(C(=O)O)n2)cc1")
"163 °C"
>>> recorded_result("CC12CC(CCF)C3C4CCC(=O)C=C4CCC3C1CCC2=O (centres undefined)")
"85 °C"
>>> recorded_result("CC(C)(C)c1ccc(S(=O)(=O)N2CCCC2=O)cc1")
"131 to 133 °C"
>>> recorded_result("CCOC(=O)c1nc2cc(NC(=O)OC(C)(C)C)ccn2n1")
"220 to 222 °C"
>>> recorded_result("Cc1ccc(S(=O)(=O)N2CCCC2c2cccs2)cc1 (racemic)")
"108 °C"
>>> recorded_result("NC1C(=O)N(CC2C3CC4CC(C3)CC2C4)c2ccccc2N(c2ccccc2)C1=O (centres undefined)")
"209 to 210 °C"
>>> recorded_result("COc1ccc(C2=NN(c3ccccc3C)C(=O)[C@H]3CC=CC[C@@H]23)cc1OC (relative stereo)")
"144 to 145 °C"
>>> recorded_result("COC(=O)CSSc1cc(Oc2ccc(C(F)(F)F)cc2Cl)ccc1[N+](=O)[O-]")
"66 to 68 °C"
>>> recorded_result("COc1ccc(CCCN2C=CC=C3C2=Nc2cc(C)ccc2S(=O)(=O)N3C)cc1")
"130 to 131 °C"
>>> recorded_result("O=[N+]([O-])c1ccc(F)c(-c2ccsc2)c1")
"65 °C"
>>> recorded_result("CCN(CCO)Cc1cc(Nc2nc(Nc3ccc4c(c3OC)CCC(N3CCOCC3)CC4)ncc2Cl)ccc1F (centres undefined)")
"81 to 83 °C"
>>> recorded_result("COc1cc(OC)c(NC(=O)Nc2ccccc2)cc1O")
"162 to 164 °C"
>>> recorded_result("COC(=O)Cc1noc2cc(F)ccc12")
"60 to 61 °C"
>>> recorded_result("CC(C)C(NC(=O)c1ccc(C(=O)NCC(=O)OCc2ccccc2)cc1)C(=O)N1CCCC1C(=O)NC(C(=O)C(F)(F)F)C(C)C (mixture of isomers)")
"77 to 78 °C"
>>> recorded_result("COc1cc(-n2nc(C#N)cc2-c2ccc(S(C)(=O)=O)cc2)ccc1Br")
"212 to 214 °C"
>>> recorded_result("CCN(CC)CCn1c(=O)c2cc(OC)c(OC)cc2c2cnc3cc4c(cc3c21)OCO4")
"159 to 160 °C"
>>> recorded_result("O=C(/C=C/c1ccc(O)cc1Cl)CC(=O)/C=C/c1cc(O)ccc1[N+](=O)[O-]")
"132 to 136 °C"
>>> recorded_result("O=CCCC12CC(c3ccccc31)c1ccccc12")
"135 to 140 °C"
>>> recorded_result("CCOC(=O)c1cn(C2CC2)c2nc(N3C[C@@H](CN(C)C(=O)C(F)(F)F)[C@@H](F)C3)c(F)cc2c1=O (relative stereo)")
"177 to 179 °C"
>>> recorded_result("Cc1cc(OCc2ccccc2)cc(OCCCc2ccccc2)c1C(=O)O")
"109 to 111 °C"
>>> recorded_result("Nc1ccc2c(c1)c1ccccc1n2CCC(=O)NCCO")
"217 to 218 °C"
>>> recorded_result("Cc1c(C)c2c(c(C)c1O)CCC(C)(C(=O)NCC1(c3ccc(-n4c(C)ccc4C)cc3)CCCC1)O2 (centres undefined)")
"90 to 94 °C"
>>> recorded_result("CSc1cc(Oc2cccc(C(F)(F)F)c2)nc(C(=O)Nc2ccccc2)c1")
"115 to 119 °C"
>>> recorded_result("N#Cc1ccc(O)c(Cc2cc(F)cc(Cc3cc(C#N)ccc3O)c2O)c1")
"222 °C"

====

The following molecules are shown together with reported melting point values.
value-type: melting point

>>> recorded_result("Cn1ncc2c1-c1c(S(C)(=O)=O)sc(S(=O)(=O)Cl)c1CC2")
"81 to 82 °C"
>>> recorded_result("Cc1ccc(S(=O)(=O)N2CCC[C@H](C(C#N)(c3ccccc3)c3ccccc3)C2)cc1")
"148 to 150 °C"
>>> recorded_result("CCc1nnc(-c2ccc(OC)cc2)n1-c1ccc(N(C)C)cc1")
"136 °C"
>>> recorded_result("CC(C)COC(=O)N1CCC(c2ccc3oc(-c4ccc(S(C)(=O)=O)cc4F)nc3c2)CC1")
"169 to 173 °C"
>>> recorded_result("CN(C)CCNc1ccc(-c2nn(CC(=O)O)c3ncccc23)cc1")
"240 to 242 °C"
>>> recorded_result("CCn1c(C(C)NS(=O)(=O)c2ccc(Cl)c(Cl)c2)cnc1Oc1ccc(Cl)cc1 (centres undefined)")
"153 to 157 °C"
>>> recorded_result("COc1ccc2c(c1)CCC1C2CCC2(C)C(NCCCCCCCCN)CCC12 (centres undefined)")
"47.5 to 49 °C"
>>> recorded_result("CC(=O)Oc1c(Cc2ccccc2)cc(C(C)=O)c2ccccc12")
"118 to 120 °C"
>>> recorded_result("Cc1ccc(S(=O)(=O)c2ccccc2[N+](=O)[O-])cc1")
"155 to 156 °C"
>>> recorded_result("CS(=O)(=O)c1ccc(C(Br)C(=O)c2ccc(F)cc2)cc1 (centres undefined)")
"140 to 141 °C"
>>> recorded_result("Clc1cccc(-c2nc(Cl)cc(Cl)n2)c1")
"118 to 120 °C"
>>> recorded_result("Cc1ccccc1-c1c(NC(=O)Nc2ccc(F)cc2F)cnc2sc(Cl)cc12")
"225 to 226 °C"
>>> recorded_result("O=C(OCc1ccccc1)N1CCN(c2cc(=O)[nH]cn2)CC1")
"247 to 249 °C"
>>> recorded_result("OC(COc1cccc2[nH]ccc12)CN1CCC(c2c[nH]c3cc(F)ccc23)CC1 (single isomer, unassigned; (+))")
"94 to 97 °C"
>>> recorded_result("CC(C)CN(CC(C)C)C(=O)c1c(N)cccc1N")
"76 to 77 °C"
>>> recorded_result("CCCCc1nc2cc3ccccc3cc2n1Cc1ccc(C#N)cc1")
"138 °C"
>>> recorded_result("CCCN1CC(NC(=O)C(C)(C)C)CC2c3cccc4[nH]c(Br)c(c34)CC21 (centres undefined)")
"182 to 183 °C"
>>> recorded_result("CCOC(=O)CCCCCCCn1cnc(-c2ccc(O)cc2)c1-c1ccc(O)cc1")
"186 to 187 °C"
>>> recorded_result("CCO[C@@H]1C[C@H](C(=O)Nc2ccc(N3CCOCC3=O)c(C)c2)N(C(=O)Nc2ccc(Cl)cc2)C1")
"117 °C"
>>> recorded_result("COC(=O)C(C)(C)Cc1c(SC(C)(C)C)c2cc(OCc3cnccn3)ccc2n1Cc1ccc(Cl)cc1")
"141 to 142 °C"
>>> recorded_result("CCOc1cc2ncc(C#N)c(CC(=O)c3ccc(Br)cc3)c2cc1OCC")
"210 to 213 °C"
>>> recorded_result("Cc1nc2cnc(Nc3ccc(N4CCNCC4)cn3)nc2n(C2CCCC2)c1=O")
"221 to 223 °C"
>>> recorded_result("O=C(N[C@H](Cc1cccc(Oc2ccccc2)c1)[C@@H](O)c1ccc(F)cc1)c1ccc(F)c2ccccc12 (racemic)")
"120 to 121 °C"
>>> recorded_result("Cn1cnc(Cc2cccc3c2OC(C)(C)OC3)c1")
"67 to 72 °C"
>>> recorded_result("N[C@@H](Cc1ccc(N(CCCl)CCCl)cc1)C(=O)N[C@@H](Cc1cccc(C2CCCC2)c1)C(=O)O")
"80 to 90 °C"
>>> recorded_result("CCCCOC(=O)c1ccc(OC(=O)C(=O)Oc2ccc(C(=O)OCCCC)cc2)cc1")
"100 to 102 °C"
>>> recorded_result("COc1ccc2c(c1)CCC(c1ccccc1)=C2c1ccccc1")
"98 to 101 °C"
>>> recorded_result("CCCC12CCC3C4CCC(=O)C=C4CCC3C1CCC2OC(=O)CCc1ccccc1 (centres undefined)")
"104 to 108 °C"
>>> recorded_result("CCCCCCCCCCCCCCCCOC(=O)Cl")
"> 230 °C"
>>> recorded_result("COC(=O)c1scc2nc(SCc3cc(OC)ccn3)[nH]c12")
"156 to 160 °C"
>>> recorded_result("CCNc1ccc(C(=O)CBr)cc1S(N)(=O)=O")
"156 to 157 °C"
>>> recorded_result("Cc1ccc2nc(-c3ccc([N+](=O)[O-])cc3)cn2c1")
"237 to 239 °C"
>>> recorded_result("Cc1nc(C)c(Cl)c(NCc2nccc(SCCCSc3ncccn3)c2C)n1")
"158 to 159 °C"
>>> recorded_result("CCOC(=O)c1cn(CC)c2cc(-c3csc(CN(CCOC(C)=O)C(C)=O)n3)c(F)cc2c1=O")
"148 to 152 °C"
>>> recorded_result("COc1cc(NC(C)=O)c2c(c1)OC(C)C2 (centres undefined)")
"104 °C"
>>> recorded_result("Cc1cc(NC(=O)C2CSc3sccc3C2=O)no1 (centres undefined)")
"143 to 146 °C"
>>> recorded_result("COc1ccc(-c2cc(N3CCN(c4ccccc4)CC3)nc(C)c2-c2ccc(OC)cc2)cc1")
"173 to 174 °C"
>>> recorded_result("Cc1ccc(COc2ccc(C=C3CCCCC3=O)cc2)cc1")
"148 to 149 °C"
>>> recorded_result("Cc1ccc(COc2ncc(F)c(NCO)n2)cc1")
"97 to 98 °C"
